Each entry below lists one item and its recorded IC50 value.
Target: Human TRPC6 (Homo sapiens)
Construct: expressed in transfected cells
Test: Evaluation of TRPC6 channel inhibitory activity (2), HEK293 cells with stably introduced human TRPC6, OAG stimulation, FLIPR tetra (Compound Nos. 1293 to 1405)
Type: cell-based
Details: HEK293 cells with stably introduced human TRPC6, OAG 50 μM/0.5% DMSO, read-out: Inhibitory activity (pIC50 class) (converted)

Recorded IC50, per entry:
mol_smiles | test_system | result_value
COc1nc(-c2ccc(C#N)cc2Oc2cc(-c3ccccn3)nn2C)ncc1[C@H](O)CN | Human TRPC6 (Homo sapiens) | 10 to 1000 nM
Cn1nc(C2CC2)cc1Oc1cc(Cl)ccc1-c1ncc(CN)cn1 | Human TRPC6 (Homo sapiens) | 10 to 1000 nM
Cn1nc([C@H]2CCOC2)cc1Oc1cc(Cl)ccc1-c1ncc([C@@H](F)CN)cn1 | Human TRPC6 (Homo sapiens) | 10 to 1000 nM
Cn1nc(C2CC2)cc1Oc1cc(C#N)ccc1-c1ncc([C@@H](F)CN)cn1 | Human TRPC6 (Homo sapiens) | < 10 nM
Cn1nc(C2CCOCC2)cc1Oc1cc(Cl)ccc1-c1ncc([C@H](F)CN)cn1 | Human TRPC6 (Homo sapiens) | 10 to 1000 nM
Cn1nc(C2CCOCC2)cc1Oc1cc(Cl)ccc1-c1ccc([C@@H](F)CN)cn1 | Human TRPC6 (Homo sapiens) | < 10 nM

Assign IC50 to the following record: Cc1cc(Oc2cc(C#N)ccc2-c2ncc3c(n2)CNC3)cc(N2CCOCC2)n1 > 1000 nM

Return IC50 for the following compound: Cc1cc(Oc2cc(C#N)ccc2-c2ccc3c(n2)CNC3)cc(N2CCOCC2)n1 10 to 1000 nM

====

Target: Human TRPC6 (Homo sapiens)
Construct: expressed in transfected cells
Assay: Evaluation of TRPC6 channel inhibitory activity (1), FLIPR Calcium 5 Assay Kit, OAG stimulation (Compound Nos. 1-1293)
Type: cell-based
Details: Human TRPC6 stably-expressing cells, OAG 30 μM, FLIPR Calcium 5 Assay Kit; read-out: Inhibitory activity (pIC50 class) (converted)
Procedure: Evaluation of TRPC6 Channel Inhibitory Activity (1) (Compound Nos. 1-1293) In order to investigate TRPC6 channel inhibitory activity of the compounds, evaluation was conducted using FLIPR® Calcium 5 Assay Kit (Molecular Devices) in accordance with the following procedure. […] A volume of 12.5 μL of a compound solution was added into each well while the fluorescence was measured with FLIPR tetra. […]
observable: IC50

Use the examples below as a reference point.
molecule | test_system | IC50
Cc1nc(Oc2cc(C#N)ccc2-c2ccc(CCN)cc2)cc(N2CCCCC2)n1 | Human TRPC6 (Homo sapiens) | < 10 nM
COCCN(C)c1cc(Oc2cc(C#N)ccc2-c2ccc(CCN)cn2)cc(C)n1 | Human TRPC6 (Homo sapiens) | < 10 nM
Cn1nc(C2CC2)cc1Oc1cc(C#N)ccc1-c1ccc(CN)cn1 | Human TRPC6 (Homo sapiens) | < 10 nM
Cn1nc(-c2ccccn2)cc1Oc1cc(C#N)ccc1-c1ncc(CN)s1 | Human TRPC6 (Homo sapiens) | < 10 nM
Cc1ccc(-c2cc(Oc3cc(C#N)ccc3-c3ccc(C(O)CN)cc3)n(C)n2)nc1 (stereo not shown) | Human TRPC6 (Homo sapiens) | < 10 nM

Find the measured IC50 of COC(C)(C)CN(C)c1cc(Oc2cc(C#N)ccc2-c2ncc(CN)cn2)n(C)n1 and report it. > 1000 nM

Answer with the recorded IC50 for the molecule listed here: Cn1nc(C2CC2)cc1Oc1cc(C#N)ccc1-c1cccc2c(N)nccc12 > 1000 nM

Provide IC50 value for the following molecule: Cc1nc(Oc2cc(C#N)ccc2-c2ncc(CCN)cn2)cc(O[C@H]2CCOC2)n1 10 to 1000 nM

Supply reported IC50 belonging to this molecule: N#Cc1ccc(-n2ccc(C(O)CN)n2)c(Oc2cnnc(-c3ccc[nH]3)c2)c1 (stereo not shown) 10 to 1000 nM

Look up and state reported IC50 for Cc1nn(-c2ccccn2)cc1Oc1cc(C#N)ccc1-c1ncc(CCN)cn1 < 10 nM

====

Biological target: Human TRPC6 (Homo sapiens)
Construct: expressed in transfected cells
Assay: Evaluation of TRPC6 channel inhibitory activity (1), FLIPR Calcium 5 Assay Kit, OAG stimulation (Compound Nos. 1-1293)
Assay type: cell-based
Conditions: Human TRPC6 stably-expressing cells, OAG 30 μM, FLIPR Calcium 5 Assay Kit; read-out: Inhibitory activity (pIC50 class) (converted)
observable: IC50

Known results for compounds:
compound | IC50
Cn1nc(C2CC2)cc1Oc1cc(C#N)ccc1-c1cc(C(=O)N2CCC[C@@H](N)C2)ccn1 [compound 554] | > 1000 nM
Cc1nn(CC(C)C)cc1Cc1cc(F)ccc1-c1ncc(CN)cn1 [compound 1225] | 10 to 1000 nM

For Cn1nc(N2CCCC2)cc1Oc1cc(C#N)ccc1-c1ccc(CN)cn1 [compound 622] , write its IC50. < 10 nM

Identify measured IC50 associated with Cc1nc(Oc2cc(C#N)ccc2-n2cc([C@@H](O)CN)cn2)cc(-c2ccccc2C#N)n1 [compound 341] < 10 nM

Please list IC50 recorded for the compound CCCc1nccn1Cc1cc(C#N)ccc1-c1ccc(CCN)cc1 [compound 1121] > 1000 nM

Using known records, supply IC50 for Cn1nc(-c2cncs2)cc1Oc1cc(C#N)ccc1-c1ncc(CCN)cn1 [compound 951] < 10 nM

Tell me its IC50 given Cc1ncsc1-c1cc(Oc2cc(C#N)ccc2-c2ncc(CN)cn2)n(C)n1 [compound 958] as the entry. < 10 nM

Let me know recorded IC50 for CC(C)Cc1cn(Cc2cc(C#N)ccc2-c2ncc(CN)cn2)nn1 [compound 1188] , thanks. 10 to 1000 nM

For the compound Cc1nc(-c2cccc(F)c2)cn1Cc1cc(C#N)ccc1-c1ncc([C@H](O)CN)cn1 [compound 1162] , give its measured IC50 value. 10 to 1000 nM

====

Quick list: IC50 per entry.
Target: Human TRPC6 (Homo sapiens)
Construct: expressed in transfected cells
Test: Evaluation of TRPC6 channel inhibitory activity (1), FLIPR Calcium 5 Assay Kit, OAG stimulation (Compound Nos. 1-1293)
Format: cell-based
Conditions: Human TRPC6 stably-expressing cells, OAG 30 μM, FLIPR Calcium 5 Assay Kit; read-out: Inhibitory activity (pIC50 class) (converted)

compound | IC50
N#Cc1ccc(-c2ncc(CN)cn2)c(Oc2nnc(Br)s2)c1 [compound 700] | > 1000 nM
Cc1cc(Oc2cc(C#N)ccc2-c2ncc(CCN)cn2)cc(NC(C)C)n1 [compound 461] | < 10 nM
Cn1nc(C2CCC2)cc1Oc1cc(C#N)ccc1-c1ccc(C(F)(F)CN)cn1 [Compound 294] | < 10 nM

Lab note: next compound to report on.
Supply measured IC50 of Cc1cc(Oc2cc(C#N)ccc2-c2ccc(N3CC[C@@H](N)C3=O)cn2)cc(N2CCOCC2)n1 [compound 569] in your reply. > 1000 nM

====

Reported values of IC50 for individual entries
Molecular target: Human TRPC6 (Homo sapiens, UniProt Q9Y210)
Construct: expressed in transfected cells
Sequence (Q9Y210 1-931): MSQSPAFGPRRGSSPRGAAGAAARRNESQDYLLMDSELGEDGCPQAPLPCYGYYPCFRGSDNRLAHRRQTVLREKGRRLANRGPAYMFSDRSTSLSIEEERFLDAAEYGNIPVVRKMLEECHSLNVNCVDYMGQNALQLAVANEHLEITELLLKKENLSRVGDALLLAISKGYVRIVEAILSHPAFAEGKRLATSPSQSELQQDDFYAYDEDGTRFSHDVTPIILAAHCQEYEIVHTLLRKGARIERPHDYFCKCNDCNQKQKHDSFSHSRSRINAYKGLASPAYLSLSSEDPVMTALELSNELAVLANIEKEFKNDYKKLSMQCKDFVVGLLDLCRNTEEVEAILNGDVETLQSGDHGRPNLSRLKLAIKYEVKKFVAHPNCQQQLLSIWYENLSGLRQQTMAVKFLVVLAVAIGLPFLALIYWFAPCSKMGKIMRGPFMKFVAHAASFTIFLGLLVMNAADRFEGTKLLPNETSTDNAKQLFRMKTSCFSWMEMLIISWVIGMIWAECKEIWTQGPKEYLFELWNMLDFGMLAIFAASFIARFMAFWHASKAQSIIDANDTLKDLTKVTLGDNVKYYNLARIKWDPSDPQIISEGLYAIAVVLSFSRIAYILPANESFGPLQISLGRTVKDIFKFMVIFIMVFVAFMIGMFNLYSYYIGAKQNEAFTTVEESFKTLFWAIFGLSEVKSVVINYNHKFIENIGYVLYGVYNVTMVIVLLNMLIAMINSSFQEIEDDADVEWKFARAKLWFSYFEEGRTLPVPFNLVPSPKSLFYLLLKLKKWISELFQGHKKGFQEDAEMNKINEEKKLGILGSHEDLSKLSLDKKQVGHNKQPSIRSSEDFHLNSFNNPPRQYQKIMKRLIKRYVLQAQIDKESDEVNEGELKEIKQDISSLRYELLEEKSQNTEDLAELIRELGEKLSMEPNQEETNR
Test: Evaluation of TRPC6 channel inhibitory activity (1), FLIPR Calcium 5 Assay Kit, OAG stimulation (Compound Nos. 1-1293)
Format: cell-based
Settings: Human TRPC6 stably-expressing cells, OAG 30 μM, FLIPR Calcium 5 Assay Kit; read-out: Inhibitory activity (pIC50 class) (converted)

Below: 10 molecules and their reported IC50.
molecule | observable | result_value
Cc1nc(OCC(F)F)cc(Oc2cc(C#N)ccc2-c2ncc(CN)cn2)n1 | IC50 | > 1000 nM
Cc1nc(Oc2cc(C#N)ccc2-c2ccc3c(c2)C(O)C(N)CC3)cc(-c2ccccc2)n1 (centres unmarked) | IC50 | > 1000 nM
Cn1nc(N2CCCC2)cc1C(=O)c1cc(C#N)ccc1-c1ncc(CN)cn1 | IC50 | < 10 nM
CC(C)Cn1cc(Cc2cc(F)ccc2-c2ncc(CN)cn2)cn1 | IC50 | > 1000 nM
Cc1ncc(N2CCOCC2)cc1Oc1cc(C#N)ccc1-c1ncc(CCN)cn1 | IC50 | 10 to 1000 nM
N#Cc1ccc(-c2ccc(CCN)cc2)c(Oc2cnnc(O[C@H]3CCC[C@@H]3O)c2)c1 | IC50 | 10 to 1000 nM
N#Cc1ccc(-c2ccc(CCN)cc2)c(Oc2cc(N3CCOCC3)nc(C(F)(F)F)n2)c1 | IC50 | < 10 nM
N#Cc1ccc(-c2ncc(CCN)cn2)c(Oc2nnc(-c3ccccc3)s2)c1 | IC50 | < 10 nM
CC(C)c1cc(Oc2cc(F)ccc2-c2ccc(CCN)cn2)n(C)n1 | IC50 | < 10 nM
Cn1nc(C2CC2)cc1Oc1cc(C#N)ccc1-c1ncc(CCN)cn1 | IC50 | < 10 nM

Entry Cc1nn(CC(C)C)cc1Oc1cc(F)ccc1-c1ncc(CCN)cn1 needs its IC50 filled in; supply it. < 10 nM

For the molecule CN(C)c1cc(Cc2cc(C#N)ccc2-c2ncc(CN)cn2)n(C)n1 , give its reported IC50. 10 to 1000 nM

Provide one value: measured IC50 of N#Cc1ccc(-c2ncc(CN)cn2)c(Oc2nnc(N3CC(F)C3)s2)c1 > 1000 nM

Answer with the recorded IC50 of Cc1noc(C)c1-c1cc(Oc2cc(C#N)ccc2-c2ccc(CCN)cc2)cnn1 only. > 1000 nM

Identify measured IC50 associated with N#Cc1ccc(-c2ccc(C(O)CN)cc2)c(Sc2cnnc(N3CCOCC3)c2)c1 (centres unmarked) > 1000 nM

Specify IC50 for N#Cc1ccc(-c2ccc(C(O)CN)cn2)c(Cn2cncc2-c2ccccc2)c1 (centres unmarked) and stop. > 1000 nM

Query IC50 for CCN(CC)c1cc(Oc2cc(C#N)ccc2-c2ncc(CN)cn2)n(C)n1 < 10 nM
